Data origin, for the record: patent US6630075B2

experiment_summary: Micro-Cup Burner Test (extinguishing concentration; Mass Ratio Calculation vs HALON 1211)
condition_context: calculated from extinguishing volume % and molecular weight relative to HALON 1211 (165 g/mole)
readout_name: Mass Ratio to HALON™ 1211
Keep the answer to the number alone.

| molecule | Mass Ratio to HALON™ 1211 |
| --- | --- |
| O=C(C(F)(F)C(F)(F)F)C(F)(C(F)(F)F)C(F)(F)F | 1.86 |

Query string: Suppose we examine the molecule `O=C(C(F)(F)C(F)(F)C(F)(F)F)C(F)(F)C(F)(F)C(F)(F)F` ; what Mass Ratio to HALON™ 1211 value has been reported?
Result string: 2.64

Query string: Suppose we examine the molecule FC(F)(F)C(F)(F)C(F)(F)C(F)(F)C(F)(F)C(F)(F)F [Comparative Example C8, perfluoro-n-hexane, reference compound] ; what Mass Ratio to HALON™ 1211 value has been reported?
Result string: 2.27

Query string: Suppose we examine the molecule FC(F)(F)I [Comparative Example C2, iodotrifluoromethane, reference compound] ; what Mass Ratio to HALON™ 1211 value has been reported?
Result string: 1.14

Query string: Suppose we examine the molecule `O=C(C(F)(F)C(F)(F)C(F)(F)F)C(F)(C(F)(F)F)C(F)(F)F` ; what Mass Ratio to HALON™ 1211 value has been reported?
Result string: 2.21

Query string: Suppose we examine the molecule COC(F)(F)C(F)(F)C(F)(F)F [Comparative Example C11, reference compound] ; what Mass Ratio to HALON™ 1211 value has been reported?
Result string: 2.52

Query string: Suppose we examine the molecule FC(C(F)(F)F)C(F)(F)F [Comparative Example C5, 1,1,1,2,3,3,3-heptafluoropropane, reference compound] ; what Mass Ratio to HALON™ 1211 value has been reported?
Result string: 1.90

Query string: Suppose we examine the molecule CC(=O)C(F)(C(F)(F)F)C(F)(F)F [Comparative Example C12, reference compound] ; what Mass Ratio to HALON™ 1211 value has been reported?
Result string: 2.42

====

experiment_summary: Micro-Cup Burner Test (extinguishing concentration; Mass Ratio Calculation vs HALON 1211)
condition_context: calculated from extinguishing volume % and molecular weight relative to HALON 1211 (165 g/mole)
readout_name: Mass Ratio to HALON™ 1211
Keep the answer to the number alone.

| compound | Mass Ratio to HALON™ 1211 |
| --- | --- |
| CC(=O)C(F)(F)C(F)(F)C(F)(F)C(F)(F)F [Comparative Example C13, perfluorobutyl methyl ketone, reference compound] | 2.77 |
| FC(F)(F)CC(F)(F)F [Comparative Example C3, 1,1,1,3,3,3-hexafluoropropane, reference compound] | 1.61 |

// switching to the query compound
Query string: Suppose we examine the compound COC(F)(C(F)(F)F)C(F)(C(F)(F)F)C(F)(F)F (stereo not drawn) [Comparative Example C9, reference compound] ; what Mass Ratio to HALON™ 1211 value has been reported?
Result string: 2.27

====

Listing of entries alongside the reported Mass Ratio to HALON™ 1211.
experiment_summary: Micro-Cup Burner Test (extinguishing concentration; Mass Ratio Calculation vs HALON 1211)
condition_context: calculated from extinguishing volume % and molecular weight relative to HALON 1211 (165 g/mole)
Keep the answer to the number alone.

Query string: Suppose we examine the molecule `O=C(C(F)(F)F)C(F)(F)C(F)(F)F` ; what Mass Ratio to HALON™ 1211 value has been reported?
Result string: 2.68

Query string: Suppose we examine the molecule FC(F)(F)C(F)(F)C(F)(F)F [Comparative Example C6, perfluoro-n-propane, reference compound] ; what Mass Ratio to HALON™ 1211 value has been reported?
Result string: 2.05

Query string: Suppose we examine the molecule FC(F)(Cl)Br [Comparative Example C1, bromochlorodifluoromethane, reference compound] ; what Mass Ratio to HALON™ 1211 value has been reported?
Result string: 1.00

Query string: Suppose we examine the molecule `O=C(CC(=O)C(F)(F)F)C(F)(F)F` ; what Mass Ratio to HALON™ 1211 value has been reported?
Result string: 2.55

====

Listing of entries alongside the reported Mass Ratio to HALON™ 1211.
experiment_summary: Micro-Cup Burner Test (extinguishing concentration; Mass Ratio Calculation vs HALON 1211)
condition_context: calculated from extinguishing volume % and molecular weight relative to HALON 1211 (165 g/mole)
Keep the answer to the number alone.

| compound | test_result |
| --- | --- |
| O=C(C(F)(F)C(F)(F)OC(F)(F)F)C(F)(C(F)(F)F)C(F)(F)F | 2.76 |
| O=C(C(F)(F)F)C(F)(F)C(F)(F)C(F)(F)C(F)(F)C(F)(F)C(F)(F)F | 2.17 |
| O=C(C(=O)C(F)(C(F)(F)F)C(F)(F)F)C(F)(C(F)(F)F)C(F)(F)F | 2.57 |
| FC(F)(F)C(F)(F)C(F)(F)C(F)(F)F [Comparative Example C7, perfluoro-n-butane, reference compound] | 2.12 |
| COC(F)(F)C(F)(F)C(F)(F)C(F)(F)F [Comparative Example C10, perfluorobutyl Methyl Ether, reference compound] | 2.52 |

Query string: Suppose we examine the compound `O=C(C(F)(C(F)(F)F)C(F)(F)F)C(F)(C(F)(F)F)C(F)(F)F` ; what Mass Ratio to HALON™ 1211 value has been reported?
Result string: 2.03

Query string: Suppose we examine the compound `O=C(C(F)(F)C(F)(F)F)C(F)(F)C(F)(F)C(F)(F)F` ; what Mass Ratio to HALON™ 1211 value has been reported?
Result string: 2.39

Query string: Suppose we examine the compound `O=C(C(F)(F)C(F)F)C(F)(C(F)(F)F)C(F)(F)F` ; what Mass Ratio to HALON™ 1211 value has been reported?
Result string: 2.20

====

Listing of entries alongside the reported Mass Ratio to HALON™ 1211.
experiment_summary: Micro-Cup Burner Test (extinguishing concentration; Mass Ratio Calculation vs HALON 1211)
condition_context: calculated from extinguishing volume % and molecular weight relative to HALON 1211 (165 g/mole)

Some solved cases for reference:
| cpd_smiles | Mass Ratio to HALON™ 1211 |
| --- | --- |
| O=C(C(F)(F)Cl)C(F)(C(F)(F)F)C(F)(F)F | 2.23 |
| O=C(C(F)(F)F)C(F)(C(F)(F)F)C(F)(F)F | 2.19 |
| O=C1C(F)(F)C(F)(F)C(F)(F)C(F)(F)C1(F)F | 2.80 |

// switching to the query compound
Query string: Suppose we examine the compound `O=C(C(F)(F)C(F)(F)C(F)(F)C(F)(F)F)C(F)(C(F)(F)F)C(F)(F)F` ; what Mass Ratio to HALON™ 1211 value has been reported?
Result string: 3.00

====

experiment_summary: Micro-Cup Burner Test (extinguishing concentration; Mass Ratio Calculation vs HALON 1211)
condition_context: volume % in air required to extinguish the flame within an average time of 30 seconds or less; propane fuel
Listing of entries alongside the reported Ext. Conc. (vol %).

Some solved cases for reference:
| compound | Ext. Conc. (vol %) |
| --- | --- |
| O=C1C(F)(F)C(F)(F)C(F)(F)C(F)(F)C1(F)F [Example 15, decafluorocyclohexanone] | 6.0 vol % |
| O=C(CC(=O)C(F)(F)F)C(F)(F)F [Example 10, 1,1,1,5,5,5-hexafluoropentan-2,4-dione] | 7.3 vol % |
| CC(=O)C(F)(C(F)(F)F)C(F)(F)F [Comparative Example C12, reference compound] | 6.8 vol % |

Query string: Suppose we examine the compound FC(F)(F)I [Comparative Example C2, iodotrifluoromethane, reference compound] ; what Ext. Conc. (vol %) value has been reported?
Result string: 3.5 vol %

Query string: Suppose we examine the compound FC(C(F)(F)F)C(F)(F)F [Comparative Example C5, 1,1,1,2,3,3,3-heptafluoropropane, reference compound] ; what Ext. Conc. (vol %) value has been reported?
Result string: 6.6 vol %

Query string: Suppose we examine the compound FC(F)(F)C(F)(F)C(F)(F)C(F)(F)C(F)(F)C(F)(F)F [Comparative Example C8, perfluoro-n-hexane, reference compound] ; what Ext. Conc. (vol %) value has been reported?
Result string: 4.0 vol %

Query string: Suppose we examine the compound O=C(C(F)(C(F)(F)F)C(F)(F)F)C(F)(C(F)(F)F)C(F)(F)F [Example 2] ; what Ext. Conc. (vol %) value has been reported?
Result string: 3.3 vol %

Query string: Suppose we examine the compound O=C(C(F)(F)F)C(F)(F)C(F)(F)C(F)(F)C(F)(F)C(F)(F)C(F)(F)F [Example 4] ; what Ext. Conc. (vol %) value has been reported?
Result string: 3.1 vol %

Query string: Suppose we examine the compound COC(F)(C(F)(F)F)C(F)(C(F)(F)F)C(F)(F)F (centres unmarked) [Comparative Example C9, reference compound] ; what Ext. Conc. (vol %) value has been reported?
Result string: 4.5 vol %

Query string: Suppose we examine the compound O=C(C(F)(F)F)C(F)(C(F)(F)F)C(F)(F)F [Example 5] ; what Ext. Conc. (vol %) value has been reported?
Result string: 4.9 vol %

Query string: Suppose we examine the compound O=C(C(F)(F)C(F)(F)C(F)(F)F)C(F)(F)C(F)(F)C(F)(F)F [Example 12] ; what Ext. Conc. (vol %) value has been reported?
Result string: 4.3 vol %

Query string: Suppose we examine the compound COC(F)(F)C(F)(F)C(F)(F)C(F)(F)F [Comparative Example C10, perfluorobutyl Methyl Ether, reference compound] ; what Ext. Conc. (vol %) value has been reported?
Result string: 6.1 vol %

Query string: Suppose we examine the compound COC(F)(F)C(F)(F)C(F)(F)F [Comparative Example C11, reference compound] ; what Ext. Conc. (vol %) value has been reported?
Result string: 7.5 vol %

Query string: Suppose we examine the compound O=C(C(F)(F)C(F)(F)C(F)(F)F)C(F)(C(F)(F)F)C(F)(F)F [Example 7] ; what Ext. Conc. (vol %) value has been reported?
Result string: 3.6 vol %
